- test.target: T1, Recombinant EBOV GP without transmembrane domain (Zaire ebolavirus, strain of GP not …, UniProt Q05320)
- T1 construct: also called recombinant GP; EBOV rGPdTM; source: bought: IBT Bioservices
- T1 sequence (Q05320 whole entry, looked up, the tested form may be a part): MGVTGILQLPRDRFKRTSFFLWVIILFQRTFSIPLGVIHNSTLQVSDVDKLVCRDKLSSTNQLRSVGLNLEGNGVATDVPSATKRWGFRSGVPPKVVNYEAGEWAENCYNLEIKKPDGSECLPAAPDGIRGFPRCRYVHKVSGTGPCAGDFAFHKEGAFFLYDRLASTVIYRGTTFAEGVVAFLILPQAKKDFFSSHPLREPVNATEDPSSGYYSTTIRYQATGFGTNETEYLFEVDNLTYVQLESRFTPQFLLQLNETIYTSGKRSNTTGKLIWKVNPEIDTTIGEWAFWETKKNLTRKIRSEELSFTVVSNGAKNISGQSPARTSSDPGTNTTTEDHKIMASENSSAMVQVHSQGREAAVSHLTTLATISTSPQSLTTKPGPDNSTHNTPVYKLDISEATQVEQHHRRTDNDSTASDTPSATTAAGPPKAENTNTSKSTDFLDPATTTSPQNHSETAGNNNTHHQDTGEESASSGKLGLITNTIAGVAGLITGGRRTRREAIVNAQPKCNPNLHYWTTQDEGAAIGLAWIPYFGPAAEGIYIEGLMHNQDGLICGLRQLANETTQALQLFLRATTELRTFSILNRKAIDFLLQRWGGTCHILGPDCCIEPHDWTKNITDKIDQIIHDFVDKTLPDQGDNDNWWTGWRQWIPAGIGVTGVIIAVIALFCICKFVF
- assay.method.text: SPR
- measurement.parameters: both partners purified

| binder | koff (s⁻¹) |
| --- | --- |
| EBOV-GP-B5 (VHH) VHH: EVQLQASGGGLVQAGGSLRLSCTASLRAFSTYTMGWFRQAPGKEREFVAASNWRGTDFHDSVKGRFIISRDNTKKTVDLQMNSLKPEDTAIYYCAADGSTWLKRSDYSYWGQGTQVTVS | 0.00037 |
| EBOV-GP-G6 (VHH) VHH: DVQLQASGGGLVQAGGSLRISCAASGGALSDYNMGWFRQAPGKEREFVAVVTWSGGSTRYADSVNGRFTISRDNAKNTVYLQMNSLKPEDTAVYYCAAAPLTPFQSLGDMKAYNYWGQGTQVTVS | 0.00015 |
| EBOV-GP-E7 (VHH) VHH: EVQLQASGGGLVQPRGSLRLSCAASGSIFSINAMGWYRQTPEKQRELVATISSSGSTKYGDSVKGRFTISRDNAKNTVYLQMNSLKPEDTAVYYCNTQTAGLVADWGTSHYDYWGQGVQVTVS | 0.00011 |
| EBOV-GP-A8 (VHH, also called Bt-EBOV-GP-A8) VHH: EVQLQASGGGLAQAGGSLQLSCAAPGRPVRTYTMGWFRQAPGKEREFVAANNWRGTRYAGSVRGRFSISRDNSKNTVYLQMNSLKPEDTAVYYCACAVTADLLLSGNYFRGDDYDYWGQGTQVTVS | 7.2e-05 |
| EBOV-GP-C12 (VHH) VHH: EVQLQASGGGLVQPGGSLRLSCTASGSIFSINAMGWYRQTPRKERELVAAISEGGSTKYGDSVKGRFTISRDFAKNTQMVYLQMNSLKAEDTAVYYCKAQTEGPIADWGTSQYEYWGQGTQVTVS | 8.71e-05 |
| EBOV-GP-D1 (VHH) VHH: EVQLQASGGGSVPPGGSLRLSCTASLRAFSTYTMGWFRQAPGKEREFVAASNWRGTDFHDSVRGRFIISRDNTEKTVDLQMNSLKPEDTAIYYCAADGSTWLKRSDYSYWGQGTQVTVS | 0.00033 |
| EBOV-GP-H7 (VHH) VHH: DVQLQASGGGLVQAGGSLRLSCAASSGTFSSYTMGWFRQAPGKERELVARLSQSLTTLYADSVKGRFTISRDNAENTVYLQMNSLKPEDTGVYYCAAHPGTYGSAWLISPHDYAYWGQGTQVTVS | 0.0003 |
| EBOV-GP-B11 (VHH) VHH: EVQLQASGGGLVQTGGSLRLACAGSGRSFNNYGMGWFRQAPGKERQFVAAISGNDHTTHYSDSVKGRFTISRDNAKTTVYLQMNSLKPEDTAVYYCAADRLGSFFFPRASPSDYGYWGQGTQVTVS | 0.00321 |

Source listed as paper PMC5726015.
